# System: MAPK phosphorylation in PANC-1 pancreatic cancer cell line
# PROCEDURE_SUMMARY: MAPK cell-based phosphorylation assay (cell-direct ELISA, EGF stimulation)
# EXPERIMENTAL_CONTEXT: Homo sapiens, * = tested at 10 μM
READOUT: inhibition at 10 µM

MOLECULE | inhibition at 10 µM
Oc1nc(-c2ccccn2)nc2c(-c3ccc(F)cc3F)csc12 [drawing 1210] | 76 to 100%
Oc1nc(-c2ccccn2)nc2c(-c3ccccc3C(F)F)csc12 [drawing 1221] | 76 to 100%

Now take the following molecule into account.
Req: Which inhibition at 10 µM value belongs to Nc1nc(-c2ccccn2)nc2c(-c3ccccn3)csc12 ?
Resp: 76 to 100%

====

Below is a list of entries, each paired with its recorded inhibition at 10 µM value.
# Test system: MAPK phosphorylation in PANC-1 pancreatic cancer cell line
# PROCEDURE_SUMMARY: MAPK cell-based phosphorylation assay (cell-direct ELISA, EGF stimulation)
# EXPERIMENTAL_CONTEXT: Homo sapiens, * = tested at 10 μM

Please review the entries below; each comes with its answer.
COMPOUND | EXPERIMENTAL_TARGET | READOUT | DATA_VALUE
Nc1nc(-c2ccccn2)nc2scc(Br)c12 [drawing 1231] | MAPK phosphorylation in PANC-1 pancreatic cancer cell line | inhibition at 10 µM | 1 to 25%
Oc1nc(-c2ccccn2)nc2c(-c3ccccc3OC3CCCCC3)csc12 [drawing 1205] | MAPK phosphorylation in PANC-1 pancreatic cancer cell line | inhibition at 10 µM | 1 to 25%
Cc1sc2c(O)nc(-c3ccccn3)nc2c1Br [drawing 1282] | MAPK phosphorylation in PANC-1 pancreatic cancer cell line | inhibition at 10 µM | 76 to 100%
O=C(c1cc2nc(-c3ccccn3)nc(O)c2s1)N1CCN(c2ccccc2)CC1 [drawing 1188] | MAPK phosphorylation in PANC-1 pancreatic cancer cell line | inhibition at 10 µM | 1 to 25%
Nc1nc(-c2ccccn2)nc2c(-c3ccccc3)csc12 [drawing 1201] | MAPK phosphorylation in PANC-1 pancreatic cancer cell line | inhibition at 10 µM | 25 to 50%

We now examine a further compound.
Req: Request body: readout inhibition at 10 µM, system MAPK phosphorylation in PANC-1 pancreatic cancer cell line, query Oc1nc(-c2ccccn2)nc2sc3c(c12)CCNC3 [drawing 1194] . Return the value.
Resp: 25 to 50%

====

# System: TNFα production in RAW 264.7 macrophage cell line
# PROCEDURE_SUMMARY: Mouse TNF alpha quantification assay (LPS-stimulated macrophages, ELISA)
# Assay type: cell-based
# EXPERIMENTAL_CONTEXT: RAW264.7, RAW 264.7 murine leukemia virus transformed macrophage cell lines, LPS stimulation, read-out: TNF-α % Inhibition at 30 μM
Parameter: inhibition at 30 µM. Scope: all listed entries.

Study these solved cases before continuing.
COMPOUND | READOUT | DATA_VALUE
CCOc1cc(S(=O)(=O)N(Cc2ccccc2)Cc2ccccc2)c(OCC)cc1C [drawing 2059] | inhibition at 30 µM | 1 to 25%
COC(=O)c1c(C)sc2c(O)nc(-c3ccccn3)nc12 [drawing 2311] | inhibition at 30 µM | 1 to 25%
O=C(c1ccn(-c2ccccc2)n1)N1CCCc2c(O)nc(-c3ccccn3)nc21 [drawing 2076] | inhibition at 30 µM | 26 to 50%
CNC(=O)CN1CCN(c2nc(-c3ccccn3)nc3scc(-c4ccccc4)c23)CC1 [drawing 2144] | inhibition at 30 µM | 1 to 25%

Req: So what does the record say about inhibition at 30 µM for COc1ccc(COCC(=O)N2CCCc3c(O)nc(-c4ccccn4)nc32)cc1 [drawing 2072] ?
Resp: 1 to 25%

Req: Also Cn1ccc(C(=O)Nc2nnc(-c3ccccn3)[nH]2)cc1=O [drawing 1945] , if possible.
Resp: 1 to 25%

Req: Try COc1cnc(CNC(=O)c2cc3nc(-c4ccccn4)nc(O)c3s2)[nH]c1=O [drawing 2348] next.
Resp: 1 to 25%

Req: Field entry: Oc1nc(-c2ccccn2)nc2c(-c3ccccc3C(F)F)csc12 [drawing 2275]
Resp: 76 to 100%

Req: Another: CC(C)(C)c1ccc(-c2csc3c(O)nc(-c4ccccn4)nc23)cc1 [drawing 2240]
Resp: 76 to 100%

Req: Same question for Oc1nc(-c2ccccn2)nc2c(-c3cccc(C(F)(F)F)c3)csc12 [drawing 2265] please.
Resp: 76 to 100%
